Values from patent US20230310445A1

Test: PK study following IV and PO administration in male CD1 mice
Type: in vivo, mouse
Conditions: mouse, PO, 50 mg/kg, plasma, mean of three mice, read-out: MRTInf—obs
Description: The objective of this study was to determine the pharmacokinetic (PK) profile of LOX enzyme inhibiting compounds following IV and PO administrations in male CD1 mice. Male CDT mice from a qualified provider were used for all studies. […] Concentrations of LOX enzyme inhibiting compounds in the plasma were analyzed using a LC-MS/MS method. […] The following pharmacokinetic parameters were calculated, whenever possible from the plasma concentration versus time data: […]
EXPERIMENTAL ENDPOINT: MRT inf (h)
One number for each entry, in h.

> print(dat)
                                   compound  observed.result
1  NCc1ccnc(S(=O)(=O)N2C[C@@H](C(=O)N3CCS(=O)(=O)CC3)C[C@@H](C3CCCCC3)C2)c1.O=C(O)C(F)(F)F (racemic)             3.68

Next, consider the following compound.
Q: What does the data say about its MRT inf? Entry: CN(C)C(=O)N1C[C@@H](c2ccccc2)C[C@@H](S(=O)(=O)c2cccc(CN)c2)C1.O=C(O)C(F)(F)F (racemic)
Result: 1.24

###

Molecular target: Recombinant human LOXL2 (lysyl oxidase like 2) (Homo sapiens, UniProt Q9Y4K0)
Construct: purchased R&D systems
Sequence (Q9Y4K0 26-774): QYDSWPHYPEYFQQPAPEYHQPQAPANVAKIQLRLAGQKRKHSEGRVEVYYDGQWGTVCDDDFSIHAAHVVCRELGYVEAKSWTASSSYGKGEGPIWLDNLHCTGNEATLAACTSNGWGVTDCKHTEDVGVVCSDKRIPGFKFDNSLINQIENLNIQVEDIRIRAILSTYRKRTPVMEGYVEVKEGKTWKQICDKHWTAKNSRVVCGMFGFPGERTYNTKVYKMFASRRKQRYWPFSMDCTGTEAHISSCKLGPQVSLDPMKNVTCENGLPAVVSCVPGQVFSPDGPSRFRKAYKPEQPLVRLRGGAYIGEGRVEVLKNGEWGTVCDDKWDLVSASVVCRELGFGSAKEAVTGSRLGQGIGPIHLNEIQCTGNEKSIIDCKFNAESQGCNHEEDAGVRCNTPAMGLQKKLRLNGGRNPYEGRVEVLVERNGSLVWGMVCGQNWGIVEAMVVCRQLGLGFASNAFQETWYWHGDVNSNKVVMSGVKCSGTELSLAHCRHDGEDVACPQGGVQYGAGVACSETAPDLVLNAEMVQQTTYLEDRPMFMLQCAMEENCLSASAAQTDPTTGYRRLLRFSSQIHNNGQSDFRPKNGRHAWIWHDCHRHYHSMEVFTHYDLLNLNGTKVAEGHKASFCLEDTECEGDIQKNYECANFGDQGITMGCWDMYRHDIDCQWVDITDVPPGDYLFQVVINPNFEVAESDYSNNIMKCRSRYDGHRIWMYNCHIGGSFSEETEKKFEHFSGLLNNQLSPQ
Test: LOXL2 inhibition assay (fluorometric, cadaverine/Amplex Red/HRP)
Format: biochemical
Conditions: IC50 class; recombinant human LOXL2, cadaverine substrate; read-out: Activity Range LOXL2
EXPERIMENTAL ENDPOINT: IC50

Please review the entries below; each comes with its answer.
COMPOUND	TARGET OR TEST SYSTEM	IC50
NCc1ccc(S(=O)(=O)N2C[C@@H](C(=O)N3CCOCC3)C[C@@H](C3CCCCC3)C2)s1.O=C(O)C(F)(F)F (racemic) [Example 120, 2,2,2-trifluoroacetate]	Recombinant human LOXL2 (lysyl oxidase like 2) (Homo sapiens, UniProt Q9Y4K0)	≤ 500 nM
NCc1cccc(S(=O)(=O)N2C[C@@H](C(=O)N3CCS(=O)(=O)CC3)C[C@@H](C3CCCCC3)C2)c1 (racemic) [Example 140]	Recombinant human LOXL2 (lysyl oxidase like 2) (Homo sapiens, UniProt Q9Y4K0)	500 to 1000 nM
CS(=O)(=O)N1CCN(C(=O)[C@H]2C[C@@H](c3ccccc3F)CN(S(=O)(=O)c3ccc(CN)s3)C2)CC1.O=C(O)C(F)(F)F (racemic) [Example 91, 2,2,2-trifluoroacetate]	Recombinant human LOXL2 (lysyl oxidase like 2) (Homo sapiens, UniProt Q9Y4K0)	≤ 500 nM
NCc1cncc(S(=O)(=O)N2C[C@@H](C(=O)N3CCOCC3)C[C@@H](c3ccccc3)C2)c1 (racemic) [Example 131, 2,2,2-trifluoroacetate]	Recombinant human LOXL2 (lysyl oxidase like 2) (Homo sapiens, UniProt Q9Y4K0)	1000 to 30000 nM

Next, consider the following compound.
Q: What does the data say about its IC50? Entry: CC(N)c1cccc(S(=O)(=O)N2C[C@@H](C(=O)N3CCOCC3)C[C@@H](c3ccccc3)C2)c1 (mixture of isomers) [Example 102RAC, 2,2,2-trifluoroacetate]
Result: > 30000 nM

###

Test: PK study following IV and PO administration in male CD1 mice
Format: in vivo, mouse
Details: mouse, IV, 10 mg/kg, plasma, mean of three mice, read-out: Vss—obs
EXPERIMENTAL ENDPOINT: Vd (L/kg)
One number for each entry, in L/kg.

> print(dat)
                                   compound  observed.result
1  NCc1ccnc(S(=O)(=O)N2C[C@@H](C(=O)N3CCS(=O)(=O)CC3)C[C@@H](C3CCCCC3)C2)c1.O=C(O)C(F)(F)F (racemic)             5.12

Q: What does the data say about its Vd? Entry: CN(C)C(=O)N1C[C@@H](c2ccccc2)C[C@@H](S(=O)(=O)c2cccc(CN)c2)C1.O=C(O)C(F)(F)F (racemic)
Result: 3.55
